# Assayed target: Arf-GAP with SH3 domain, ANK repeat and PH domain-containing protein 1 (Homo sapiens)
# Procedure summary: blockers of ASAP1-stimulated Arf1 GTP hydrolysis – biochemical, fluorescence polarization, human, triplicate, confirmation (AID 624431)
# Condition context: ASAP1-stimulated Arf1 GTPase, GDP fluorescence polarization; at 16.5 µM; stronger effect = higher value
The other results are listed elsewhere or left out.
Assign Criterion met to entries whose inhibition meets or exceeds 30%; assign Criterion not met to the rest.

# bool: inhibition of CC(=O)N(C1=C(Cl)C(=O)c2ccccc2C1=O)c1ccc(C(=O)O)cc1 >= 30%
Criterion not met

N#Cc1cc([N+](=O)[O-])ccc1Oc1cccc(/C=N/NC(=O)c2ccc(Cl)cc2)c1 ?
Criterion met

CC(=O)Nc1cc(-c2ccc(N3CCN(C)CC3)cc2)cn2c(-c3ccc(F)cc3)cnc12 ?
Criterion met

c1ccc(-c2cc(-c3nnc4sc(-c5ccccn5)nn34)[nH]n2)cc1 ?
Criterion met

O=c1/c(=C/c2ccc(CNS(=O)(=O)c3ccccc3)o2)sc2n1CCN=2 ?
Criterion not met
